Data origin: patent US10662214B2

Quick reference for pIC50 among some compounds
Tested on: colorectal cancer cell HCT-15
assay_info: CCK-8 inhibition of proliferation, HCT-15
Format: cell-based, human
test_settings: Homo sapiens, HCT-15; CCK-8, 72 h incubation
Scale for pIC50: -log10 of concentration given in mol/L; no unit attached.

Before answering, review these 3 worked examples.
C[C@H](NP(=O)(OC[C@H]1S[C@@H](n2ccc(N)nc2=O)[C@@H](F)[C@@H]1O)Oc1ccccc1)C(=O)OCc1ccc(F)cc1 (stereo partly shown) [Compound C15]: 5.39
C[C@H](NP(=O)(OC[C@H]1S[C@@H](n2ccc(N)nc2=O)[C@@H](F)[C@@H]1O)Oc1ccccc1)C(=O)OCc1ccccc1 (stereo partly shown) [Compound C2]: 5.53
CC(C)OC(=O)[C@H](C)N[P@](=O)(OC[C@H]1S[C@@H](n2ccc(N)nc2=O)[C@@H](F)[C@@H]1O)Oc1ccccc1 [Compound C8]: 5.71

Below: the item to evaluate.
Provide one value: measured pIC50 of CC(C)OC(=O)[C@H](C)N[P@](=O)(OC[C@H]1S[C@@H](n2ccc(N)nc2=O)[C@@H](F)[C@@H]1O)Oc1ccc2c(c1)OCO2 [Compound C14]
5.01

====

System: gastric cancer cell NCI-N87
assay_info: CCK-8 inhibition of proliferation, NCI-N87
Assay type: cell-based, human
test_settings: Homo sapiens, NCI-N87; CCK-8, 72 h incubation
recorded_metric: IC50 (nM)
Reply with just the number (in nM).

Before answering, review these 5 worked examples.
CC(C)OC(=O)[C@H](C)N[P@](=O)(OC[C@H]1S[C@@H](n2ccc(N)nc2=O)[C@@H](F)[C@@H]1O)Oc1ccccc1 [Compound C8]: 483
CC(C)OC(=O)[C@H](C)N[P@@](=O)(OC[C@H]1S[C@@H](n2ccc(N)nc2=O)[C@@H](F)[C@@H]1O)Oc1ccc2c(c1)OCO2 [Compound C13]: 550
C[C@H](NP(=O)(OC[C@H]1S[C@@H](n2ccc(N)nc2=O)[C@@H](F)[C@@H]1O)Oc1ccccc1)C(=O)OCc1ccccc1 (some centres unmarked) [Compound C2]: 250
CC(C)OC(=O)[C@H](C)NP(=O)(OC[C@H]1S[C@@H](n2ccc(N)nc2=O)[C@@H](F)[C@@H]1O)Oc1ccc2ccoc2c1 (some centres unmarked) [Compound C19]: 350
CC(C)OC(=O)[C@H](C)N[P@](=O)(OC[C@H]1S[C@@H](n2ccc(N)nc2=O)[C@@H](F)[C@@H]1O)Oc1ccc2c(c1)OCO2 [Compound C14]: 180

Provide one value: measured IC50 of CC(C)OC(=O)[C@H](C)NP(=O)(OC[C@H]1S[C@@H](n2ccc(N)nc2=O)[C@@H](F)[C@@H]1O)Oc1cccc2c1OCCO2 (some centres unmarked) [Compound C16]
300

Provide one value: measured IC50 of CC(C)OC(=O)[C@H](C)NP(=O)(OC[C@H]1S[C@@H](n2ccc(N)nc2=O)[C@@H](F)[C@@H]1O)Oc1ccc(F)c2c1CCO2 (some centres unmarked) [Compound C17]
630

Provide one value: measured IC50 of C[C@H](NP(=O)(OC[C@H]1S[C@@H](n2ccc(N)nc2=O)[C@@H](F)[C@@H]1O)Oc1ccccc1)C(=O)OCc1ccc(F)cc1 (some centres unmarked) [Compound C15]
240
